method: in vitro
recordedConditions: SD, HW or BN, rat, plasma
measuredMetric: fraction unbound at 5 h
Give your answer as a number; write no unit.

Query block: Consider the compound shown here: O=S(=O)(Nc1ccc2sc(CO)nc2c1)c1ccc(Br)cc1 What is its recorded fraction unbound at 5 h?
Result block: 0.0018

Query block: Consider the compound shown here: N=C(NCCCCc1ccc(OCC(O)CO)cc1)NC(=O)c1nc(Cl)c(N)nc1N (stereo not given) [552-02 FREE BASE] What is its recorded fraction unbound at 5 h?
Result block: 0.314

Query block: Consider the compound shown here: CCOc1ccc(-n2c([C@@H](C)N(Cc3cccnc3)C(=O)Cc3ccc(OC(F)(F)F)cc3)nc3ncccc3c2=O)cc1 What is its recorded fraction unbound at 5 h?
Result block: 0.0293

Query block: Consider the compound shown here: NC(=O)NC(=O)C(Nc1ccc2c(c1)CCC2)c1ccccc1 (stereo not given) What is its recorded fraction unbound at 5 h?
Result block: 0.0581

Query block: Consider the compound shown here: C[C@@H]1c2c([nH]c3ccc(C(F)(F)F)cc23)C[C@@H]2CCN(CCN3CCOCC3)C[C@H]21 What is its recorded fraction unbound at 5 h?
Result block: 0.0313

Query block: Consider the compound shown here: CCC(CC)NC(=O)c1c(C)nn(C(C)C)c1NS(=O)(=O)c1ccc(C)cc1 What is its recorded fraction unbound at 5 h?
Result block: 0.089

Query block: Consider the compound shown here: O=c1cc(Cn2c(C3CCC3)nc3nccnc32)c2ccc(F)c(F)c2[nH]1 What is its recorded fraction unbound at 5 h?
Result block: 0.16

Query block: Consider the compound shown here: Cc1ncc(-c2cccc3c2C[C@H](NC(=O)c2ccc(OCC(F)(F)F)nc2)CO3)cn1 What is its recorded fraction unbound at 5 h?
Result block: 0.0768

Query block: Consider the compound shown here: O=C(COc1cccc(Cl)c1)NC1CN(Cc2ccn(-c3ccc(C(F)(F)F)cc3)c2)C1 What is its recorded fraction unbound at 5 h?
Result block: 0.0043

Query block: Consider the compound shown here: O=C(Nc1nc2ccccc2[nH]1)c1ccccc1 What is its recorded fraction unbound at 5 h?
Result block: 0.126

Query block: Consider the compound shown here: O=C(NCC1CCC1)c1nc(OCCOCCO)ccc1NC(=O)c1ccnc2ccccc12 What is its recorded fraction unbound at 5 h?
Result block: 0.03

Query block: Consider the compound shown here: O=c1cc(N2CCOCC2)nc(NCc2c(Cl)cccc2Cl)[nH]1 What is its recorded fraction unbound at 5 h?
Result block: 0.0418

Query block: Consider the compound shown here: COc1nc(Br)cnc1NS(=O)(=O)c1ccc(Cl)s1 What is its recorded fraction unbound at 5 h?
Result block: 0.002

Query block: Consider the compound shown here: O=C(NCC12CC3CC(CC(C3)C1)C2)c1cc(-n2ncc(=O)[nH]c2=O)ccc1Cl What is its recorded fraction unbound at 5 h?
Result block: 0.0171

Query block: Consider the compound shown here: O=C1Nc2cc(C(F)(F)F)ccc2C1(O)c1cc(Cl)ccc1O (stereo not given) What is its recorded fraction unbound at 5 h?
Result block: 0.0111

Query block: Consider the compound shown here: CCOC(=O)C1=C(C)NC(C)=C(C(C)=O)[C@H]1c1cccc2c(=O)cc(C)oc12 What is its recorded fraction unbound at 5 h?
Result block: 0.0008

Query block: Consider the compound shown here: OCCN1CCN(CCCN2c3ccccc3Sc3ccc(Cl)cc32)CC1 [PERPHENAZINE] What is its recorded fraction unbound at 5 h?
Result block: 0.0146

Query block: Consider the compound shown here: Cc1ncc(C(N)=S)nc1-c1ccc([C@H]2CC[C@H](CC(=O)O)CC2)cc1 What is its recorded fraction unbound at 5 h?
Result block: 0.0099

Query block: Consider the compound shown here: CC(C)(Cc1cccc(CC(=O)NCc2cccc(-c3ccc(O)cc3)c2)c1)NC[C@H](O)c1ccc(O)c(NS(C)(=O)=O)c1 [PF-00610355] What is its recorded fraction unbound at 5 h?
Result block: 0.0818

Query block: Consider the compound shown here: Cc1ccc(S(=O)(=O)Nc2c(C(=O)N[C@@H](C)C(C)(C)C)c(C)nn2C2CCSCC2)cc1 What is its recorded fraction unbound at 5 h?
Result block: 0.0661
